All figures here come from PubChem BioAssay (NCI).

system: HCT-15 colon; test: NCI tumour cell line growth inhibition, 48 h; in the data active means GI50 below about 0.43 µM; inactive means the rest
Lab note: assign the record to one of active, inactive

COc1ccc(C(=O)/C=C/c2ccc(OCc3cccc(C(F)(F)F)c3)c(OC)c2)cc1OC	inactive
Cc1cc(OCc2ccc(C(F)(F)F)cc2)c2c(c1)C(=O)C=C(NCCN1CCCC1)C2=O	inactive
N#C/C(=C\c1ccc[nH]1)c1cc(-c2ccc(Cl)cc2)nn1-c1ccccc1	inactive

So what was the verdict on `CN1CCN(Cc2ccc(NC(=O)c3cncc(C#Cc4ccc(N)nc4)c3)cc2C(F)(F)F)CC1` in this test? inactive

And what about the compound COc1cc2c(cc1OCC(=O)Nc1ccc(Cl)cc1C(=O)c1ccccc1Cl)N=CC1CCCN1C2=O (stereo not drawn) ? inactive

And what about the compound `CN(C(=O)C(C)(C)C)c1ccccc1I(=O)=O` ? inactive

And what about the compound `CCC[CH2][Sn]1([CH2]CCC)[O]C(=O)c2cccc([N+](=O)[O-])c2C(=O)[O]1` ? active
